# TESTED_ON: T1, AAV5
# T1 construct: also called adeno-associated virus serotype 5
# ASSAY_EXPLANATION: SPR, AAV on CM5 chip;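 further: surface plasmon resonance with AAV amine-coupled to the chip as ligand, nanobodies injected as analyte over a concentration series, rate constants and affinity fitted from binding curves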
METRIC: Kd (nM)

A4-005 (VHH) VHH: VQLQESGGGLVQAGGSLRLSCAASGRHFSINTMGWYRQAPGKQRELVAAVTRGGGTNYAGSVKGRFTISRDNAKNTVYLQMNSLRPEDTAVYYCHIDEVRQSSWTTSNIWGQGTQVTVSS; 1860
A4-032 (VHH) VHH: VQLQESGGGLVQPGGSLRLSCVASGSSFSINTMGWYRQAPGKQRELVATVTRDGSTNYANSVKGRFTISRDNAKNTVYLQMNSLRPEDTAVYYCHVDEVRQSSWTTSNLWGQGTQVTVSS; 6.7
A4-027 (VHH) VHH: VQLQESGGGLVQPGGSLRLSCAASGSNFSINTMGWYRQAPGKQRELVAALTRGGSTNYADSVKGRFTISRDNAKNTVYLQMNSLRPEDTAVYYCHVDEVRESSWTTSNLWGQGTQVTVSS; 236
A4-042 (VHH) VHH: VQLQESGGGLVQPGGSLRLSCAASGRAFSINTMGWYRQAPGKQRELVATVTRDGSTNYADSVKGRFTISRDNAKNTVYLQMNSLRPEDTAVYYCHVDEVRQSSWTTSNLWGQGTQVTVSS; 152
